# tgt: human norepinephrine transporter (hNET) (Homo sapiens)
# Construct: expressed in transfected cells; host or cells: MDCK cells
# measurement_protocol: Binding affinity to human norepinephrine transporter (hNET), [3H]Nisoxetine displacement
# settings: Table 1; membranes from MDCK cells expressing hNET, [3H]Nisoxetine 2 nM; read-out: NET binding, Ki
pKi: −log10 of the molar value. Where a name gives a salt, the structure may show the parent alone.
measurement_type: pKi

Check out these entries, answers already filled in.
{"molecule": "COCCOCCOCCOCCOc1ccc2c(c1)CCc1ccccc1/C2=C/CCN(C)C [hydrochloride salt]", "pKi": 4.67}
{"molecule": "CN(C)CC/C=C1/c2ccccc2CCc2cc(O)ccc21 [reference compound]", "pKi": 6.30}
{"molecule": "COCCOCCOCCOCCOCCOCCOCCOCCOc1ccc2c(c1)CCc1ccccc1/C2=C\\CCN(C)C [hydrochloride salt]", "pKi": 4.20}

I. COCCOCCOCCOCCOCCOCCOCCOCCOc1ccc2c(c1)CCc1ccccc1/C2=C/CCN(C)C [hydrochloride salt]
II. CN(C)CC/C=C1\c2ccccc2CCc2cc(O)ccc21 [reference compound]
III. COCCOCCOCCOCCOc1ccc2c(c1)CCc1ccccc1/C2=C\CCN(C)C [hydrochloride salt]
// ascending sort on recorded pKi Answer by listing the labels in the order asked for.
I, III, II
(I: 3.19, III: 4.22, II: 6.80)

====

# tgt: human norepinephrine transporter (hNET) (Homo sapiens, UniProt P23975)
# Construct: expressed in transfected cells; host or cells: MDCK cells
# Sequence (P23975 whole entry): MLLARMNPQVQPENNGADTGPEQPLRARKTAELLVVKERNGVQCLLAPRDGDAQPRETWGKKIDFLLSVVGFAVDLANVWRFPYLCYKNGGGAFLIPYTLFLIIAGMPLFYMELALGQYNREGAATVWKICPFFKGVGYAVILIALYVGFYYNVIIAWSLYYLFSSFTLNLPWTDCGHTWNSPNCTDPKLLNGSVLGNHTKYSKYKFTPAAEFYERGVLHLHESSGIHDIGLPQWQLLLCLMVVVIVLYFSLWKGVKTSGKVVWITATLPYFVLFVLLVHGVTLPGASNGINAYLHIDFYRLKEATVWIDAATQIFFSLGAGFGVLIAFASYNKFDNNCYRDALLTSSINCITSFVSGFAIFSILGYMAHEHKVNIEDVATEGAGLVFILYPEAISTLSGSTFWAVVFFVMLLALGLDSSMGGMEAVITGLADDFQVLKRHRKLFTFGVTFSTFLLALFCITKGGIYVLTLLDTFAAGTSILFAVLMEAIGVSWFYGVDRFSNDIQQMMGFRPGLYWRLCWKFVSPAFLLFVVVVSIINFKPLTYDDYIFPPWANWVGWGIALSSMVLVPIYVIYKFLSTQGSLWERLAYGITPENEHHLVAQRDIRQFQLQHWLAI
# measurement_protocol: Binding affinity to human norepinephrine transporter (hNET), [3H]Nisoxetine displacement
# settings: Table 3; membranes from MDCK cells expressing hNET, [3H]Nisoxetine 2 nM; read-out: NET binding, Ki
Structures can show the parent of a compound that is named as a salt.
measurement_type: Ki (µM)

Here are 5 compounds together with their reported answers.
{"compound": "CN(C)CC/C=C1/c2ccccc2C[C@@H](O)c2ccccc21 [reference compound]", "Ki, µM": 6.28}
{"compound": "COCCOCCOCCOCCO[C@H]1Cc2ccccc2/C(=C/CCN(C)C)c2ccccc21 [trifluoroacetate salt]", "Ki, µM": 27.4}
{"compound": "COCCOCCOCCOCCOCCOCCOCCOCCO[C@H]1Cc2ccccc2/C(=C/CCN(C)C)c2ccccc21 [trifluoroacetate salt]", "Ki, µM": 2.99}
{"compound": "COCCOCCOCCOCCO[C@@H]1Cc2ccccc2/C(=C/CCN(C)C)c2ccccc21 [trifluoroacetate salt]", "Ki, µM": 30.6}
{"compound": "COCCOCCOCCOCCOCCOCCO[C@H]1Cc2ccccc2/C(=C/CCN(C)C)c2ccccc21 [trifluoroacetate salt]", "Ki, µM": 22.1}

A. COCCOCCOCCOCCOCCOCCO[C@@H]1Cc2ccccc2/C(=C/CCN(C)C)c2ccccc21 [trifluoroacetate salt]
B. CN(C)CC/C=C1/c2ccccc2C[C@H](O)c2ccccc21 [reference compound]
C. COCCOCCOCCOCCOCCOCCOCCOCCO[C@@H]1Cc2ccccc2/C(=C/CCN(C)C)c2ccccc21 [trifluoroacetate salt]
Order the 3 compounds from highest to lowest Ki. Write the labels, ordered according to the request.
A, C, B

====

# tgt: cloned human hERG channel (Homo sapiens)
# Construct: expressed in transfected cells; host or cells: HEK cells
# Sequence (Q12809 whole entry): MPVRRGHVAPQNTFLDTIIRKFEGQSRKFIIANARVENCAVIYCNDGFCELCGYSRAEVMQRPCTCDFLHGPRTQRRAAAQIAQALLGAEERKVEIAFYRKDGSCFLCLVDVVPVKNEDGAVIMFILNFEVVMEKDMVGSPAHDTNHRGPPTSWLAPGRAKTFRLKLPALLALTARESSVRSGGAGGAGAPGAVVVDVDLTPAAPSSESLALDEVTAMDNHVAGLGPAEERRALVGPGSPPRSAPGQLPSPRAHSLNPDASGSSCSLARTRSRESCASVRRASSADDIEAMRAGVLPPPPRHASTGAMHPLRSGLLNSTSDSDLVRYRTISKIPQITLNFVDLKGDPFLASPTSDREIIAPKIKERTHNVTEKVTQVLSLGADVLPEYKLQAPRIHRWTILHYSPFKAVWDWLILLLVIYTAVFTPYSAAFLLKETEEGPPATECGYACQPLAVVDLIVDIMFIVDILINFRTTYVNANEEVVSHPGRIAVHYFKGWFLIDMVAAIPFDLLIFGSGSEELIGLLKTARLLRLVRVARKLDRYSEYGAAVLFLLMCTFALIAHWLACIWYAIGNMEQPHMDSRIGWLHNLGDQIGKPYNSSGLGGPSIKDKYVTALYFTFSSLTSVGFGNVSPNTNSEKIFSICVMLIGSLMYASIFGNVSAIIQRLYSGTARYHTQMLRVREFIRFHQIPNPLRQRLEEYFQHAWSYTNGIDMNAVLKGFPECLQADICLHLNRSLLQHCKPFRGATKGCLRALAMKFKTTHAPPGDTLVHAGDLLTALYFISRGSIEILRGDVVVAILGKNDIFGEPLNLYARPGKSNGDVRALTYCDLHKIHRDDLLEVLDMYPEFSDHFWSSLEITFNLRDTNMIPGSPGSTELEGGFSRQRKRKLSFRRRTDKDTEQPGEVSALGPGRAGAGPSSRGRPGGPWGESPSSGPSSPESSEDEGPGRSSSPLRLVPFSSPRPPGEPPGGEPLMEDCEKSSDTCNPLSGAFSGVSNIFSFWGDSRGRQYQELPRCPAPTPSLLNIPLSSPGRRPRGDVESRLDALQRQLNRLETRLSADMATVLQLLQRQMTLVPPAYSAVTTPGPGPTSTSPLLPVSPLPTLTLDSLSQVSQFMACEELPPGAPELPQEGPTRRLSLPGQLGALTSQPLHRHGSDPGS
# measurement_protocol: In vitro effect on hERG channels, whole-cell patch clamp in HEK cells
# Type: cell-based
# settings: Table 2, pacing rate 0.1 Hz, 37 °C, read-out: IhERG, 0.1 HZ, IC50
Where a name gives a salt, the structure may show the parent alone.
Readings of IC50 for the listed compounds
Express it in µM; write the number only.

{"compound": "COCCOCCO[C@@H]1Cc2ccccc2/C(=C\\CCN(C)C)c2ccccc21 [trifluoroacetate salt]", "measurement_type": "IC50", "value_observed": 14}
{"compound": "COCCOCCOCCOCCOCCOCCO[C@@H]1Cc2ccccc2/C(=C\\CCN(C)C)c2ccccc21 [trifluoroacetate salt]", "measurement_type": "IC50", "value_observed": 37.9}
{"compound": "COCCOCCOCCOCCO[C@@H]1Cc2ccccc2/C(=C\\CCN(C)C)c2ccccc21 [trifluoroacetate salt]", "measurement_type": "IC50", "value_observed": 39.9}

Consider the compound CN(C)CC/C=C1\c2ccccc2C[C@@H](O)c2ccccc21 [reference compound] and give its measured IC50.
18

Quick one: IC50 for COCCOCCOCCOCCOCCOCCOCCOCCO[C@@H]1Cc2ccccc2/C(=C\CCN(C)C)c2ccccc21 [trifluoroacetate salt] ?
55.9

Entry under review: COCCOCCOCCOCCOCCOCCO[C@H]1Cc2ccccc2/C(=C\CCN(C)C)c2ccccc21 [trifluoroacetate salt] . Reported IC50?
36

Entry CN(C)CC/C=C1\c2ccccc2C[C@H](O)c2ccccc21 [reference compound] has what IC50?
23.2

Which IC50 value belongs to COCCO[C@@H]1Cc2ccccc2/C(=C\CCN(C)C)c2ccccc21 [trifluoroacetate salt] ?
12.1

Bench note: what IC50 did COCCOCCOCCOCCO[C@H]1Cc2ccccc2/C(=C\CCN(C)C)c2ccccc21 [trifluoroacetate salt] show?
24.8
